Cited source: patent US20240174690A1

Task for the reader: assign each of the following compounds its reported IC50.
Tested on: GP2D cells
Assay: GP2D proliferation assay (120 h) (colorectal cancer, G12D)
Type: cell-based
Report as a plain number; the unit nM is understood.

input: Field: IC50 (GP2D cells). Entry: "C[C@H](Oc1cc(-n2cc3c(n2)CCNC3)nc(-c2noc3c2CCC[C@@]32CCCc3sc(N)c(C#N)c32)n1)[C@@H]1CCCN1C"
output: 29

input: One more compound: "CC(C)N1CCCN(c2cc(-n3ccnc3)nc(-c3noc4c3CCC[C@@]43CCCc4sc(N)c(C#N)c43)n2)[C@@H](C)C1"
output: 1870

input: One more compound: "C[C@H](Oc1cc(N2CCNC3(CC3)C2)nc(-c2noc3c2CCC[C@@]32CCCc3sc(N)c(C#N)c32)n1)[C@@H]1CCCN1C"
output: 1

input: One more compound: "C[C@H](Oc1cc(N2CCN(C)C3(COC3)C2)nc(-c2onc3c2CCC[C@@]32CCCc3sc(N)c(C#N)c32)n1)[C@@H]1C[C@@H](F)CN1C"
output: 24

input: One more compound: "C[C@H](Oc1cc(-n2cc3c(n2)CNC3)nc(-c2noc3c2CCC[C@@]32CCCc3sc(N)c(C#N)c32)n1)[C@@H]1CCCN1C"
output: 12

input: One more compound: "C[C@H](Oc1cc(N2CCOC2=O)nc(-c2noc3c2CCC[C@@]32CCCc3sc(N)c(C#N)c32)n1)[C@@H]1CCCN1C"
output: 59

* * *

Assay: Metabolic (microsomal) stability assay, human liver microsomes (HLM)
Format: in vitro ADME
Conditions: predicted clearance as percent of liver blood flow, 1 μM
PROPERTY NAME: HLM QH (%)
Report as a plain number; the unit % is understood.

input: Field request: HLM QH | item: C[C@H](Oc1cc(N2CCNC3(COC3)C2)nc(-c2noc3c2CCC[C@@]32CCCc3sc(N)c(C#N)c32)n1)[C@@H]1CCCN1C [II-31]
output: 42

input: One more molecule: C[C@H](Oc1nc(-c2noc3c2CCC[C@@]32CCCc3sc(N)c(C#N)c32)nc(N2C[C@H](C)NC3(CC3)C2)c1F)[C@@H]1C[C@@H](F)CN1C [II-157]
output: 69

input: One more molecule: C[C@H](Oc1cc([C@H]2CCOC2)nc(-c2noc3c2CCC[C@@]32CCCc3sc(N)c(C#N)c32)n1)[C@@H]1CCCN1C [II-88]
output: 26

input: One more molecule: Cc1cc(-c2onc3c2CCC[C@@]32CCCc3sc(N)c(C#N)c32)nc(N2CCCNC[C@@H]2C)n1 [I-35]
output: 32

input: One more molecule: C[C@H](Oc1cc(N2C[C@H](C)NC3(CC3)C2)nc(-c2noc3c2CCC[C@@]32CCCc3sc(N)c(C#N)c32)n1)[C@@H]1C[C@@H](F)CN1C [II-18]
output: 58

input: One more molecule: C[C@H](Oc1cc(-c2ccncc2)nc(-c2noc3c2CCC[C@@]32CCCc3sc(N)c(C#N)c32)n1)[C@@H]1CCCN1C [II-78]
output: 35

input: One more molecule: [2H]C([2H])([2H])N1C[C@H](F)C[C@H]1[C@H](C)Oc1cc(N2CCN(C)C3(CC3)C2)nc(-c2noc3c2CCC[C@@]32CCCc3sc(N)c(C#N)c32)n1 [II-209]
output: 40

input: One more molecule: CO[C@@H]1C[C@@H]([C@H](C)Oc2cc(N3CCNC4(CC4)C3)nc(-c3noc4c3CCC[C@@]43CCCc4sc(N)c(C#N)c43)n2)N(C)C1 [II-187]
output: 46
